# credit: patent US20250188078A1

# SUBJECT_OF_TEST: CUL4A-DDB1-BPB interaction (Homo sapiens (Human))
# Sequence (Q16531 403-706): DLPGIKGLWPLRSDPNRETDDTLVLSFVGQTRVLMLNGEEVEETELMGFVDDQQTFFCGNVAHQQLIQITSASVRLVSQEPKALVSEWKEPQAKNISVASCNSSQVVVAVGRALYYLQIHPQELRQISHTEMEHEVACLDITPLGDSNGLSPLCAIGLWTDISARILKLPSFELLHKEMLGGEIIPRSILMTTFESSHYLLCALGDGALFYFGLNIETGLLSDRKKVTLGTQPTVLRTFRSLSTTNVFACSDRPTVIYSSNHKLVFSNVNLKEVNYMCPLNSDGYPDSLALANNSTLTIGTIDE
# ASSAY_NAME: AlphaLISA in vitro binding assay, CUL4A and DDB1-BPB binding
# EXPERIMENTAL_CONDITIONS: inhibition of CUL4A and DDB1-BPB binding
QUANTITY_NAME: IC50 (nM)

- COMPOUND: "Cc1ccc(-c2nc(C(=O)O)cc3c2[nH]c2ccccc23)cc1 [PA2]"
  UNIT_TAG: "nM"
  REPORTED_RESULT: 3430
- COMPOUND: "COCCOCC#Cc1ccc(-c2nc(C(=O)O)cc3c2[nH]c2ccccc23)cc1 [PA63]"
  UNIT_TAG: "nM"
  REPORTED_RESULT: 5050
- COMPOUND: "O=C(O)c1cc2c([nH]c3ccccc32)c(-c2cccnc2)n1 [PA25]"
  UNIT_TAG: "nM"
  REPORTED_RESULT: 2520
- COMPOUND: "O=C(O)c1cc2c([nH]c3ccccc32)c(-c2cc(F)c(F)c(F)c2)n1 [PA33]"
  UNIT_TAG: "nM"
  REPORTED_RESULT: 2000

[I] CN(c1ccc(-c2nc(C(=O)O)cc3c2[nH]c2ccc(F)cc23)cc1)S(=O)(=O)c1ccc(Br)cc1 [PA2-4]
[II] CN(c1ccc(-c2nc(C(=O)O)cc3c2[nH]c2cc(Br)ccc23)cc1)S(=O)(=O)c1ccccc1 [PA117]
[III] CN(c1ccc(-c2nc(C(=O)O)cc3c2[nH]c2ccc(F)cc23)cc1)S(=O)(=O)c1ccc(F)cc1 [PA2-3]
[IV] CS(=O)(=O)NC(=O)c1cc2c([nH]c3ccccc32)c(-c2ccc(S(C)(=O)=O)cc2)n1 [PA55]
[V] CN1C=C(c2nc(C(=O)O)cc3c2[nH]c2ccccc23)C=NC1 [PA26]
In: Output the entries ranked by IC50 from maximum down to minimum. Use the labels to give the ranking in the order requested.
Out: IV, V, II, I, III
(IV: 11100 nM, V: 4810 nM, II: 2500 nM, I: 750 nM, III: 480 nM)
